These entries and their values trace back to patent US20110251230A1.

System: 1321N1 (human) astrocytic line
Experiment: 1321N1 oxidative stress assay (serum withdrawal, DCF)
Settings: 1321N1
Structures can show the parent of a compound that is named as a salt.
measured.endpoint: Lowest dose with toxicity

Worked cases, answers included:
>>> measured("O=c1c2ccccc2[se]n1-c1ccccc1 [Ebselen, reference compound]")
"none"
>>> measured("CCCCCc1c2c(cc(O)c1C(=O)O)OC(=O)c1c(cc(OC)cc1C(=O)CCCC)O2")
"none"
>>> measured("CC(COc1ccccc1)NC(C)C(O)c1ccc(O)cc1 (stereo not drawn) [Isoxsuprine hydrochloride, reference compound]")
"none"
>>> measured("C=C(C)C(=O)C(=CC(=O)O)OC")
"none"
>>> measured("S=C=NCc1ccccc1 [Benzyl Isothiocyanate]")
"none"

In: Return reported Lowest dose with toxicity; argument: COC(=O)[C@H](O)[C@H]1C(C)(C)[C@H](OC(C)=O)[C@@H]2CC3=C4CC(=O)O[C@@H](c5ccoc5)[C@]4(C)CC[C@@H]3[C@@]1(C)C2=O [swietenolide 3 acetate]
Out: none

In: Form field: reported Lowest dose with toxicity of COc1ccc(/C=C/C(=O)c2ccccc2)cc1
Out: none

In: # lookup: Lowest dose with toxicity of C=CC(C1=CC(=O)C=CC1=O)c1ccccc1 (stereo not drawn)
Out: none

In: Fill in: Lowest dose with toxicity of Cc1[nH]c2ccccc2c1CN(C)C is ___
Out: none

In: May I ask what Lowest dose with toxicity has been recorded for CC(=O)O[C@@H]1C[C@H]2C(C)(C)C(=O)C=C[C@]2(C)[C@H]2CC[C@]3(C)C(=CC(=O)O[C@H]3c3ccoc3)[C@@]21C ?
Out: 10 µM
